Target: Casein kinase I isoform alpha (Homo sapiens, UniProt P48729)
Sequence (P48729 whole entry, canonical isoform): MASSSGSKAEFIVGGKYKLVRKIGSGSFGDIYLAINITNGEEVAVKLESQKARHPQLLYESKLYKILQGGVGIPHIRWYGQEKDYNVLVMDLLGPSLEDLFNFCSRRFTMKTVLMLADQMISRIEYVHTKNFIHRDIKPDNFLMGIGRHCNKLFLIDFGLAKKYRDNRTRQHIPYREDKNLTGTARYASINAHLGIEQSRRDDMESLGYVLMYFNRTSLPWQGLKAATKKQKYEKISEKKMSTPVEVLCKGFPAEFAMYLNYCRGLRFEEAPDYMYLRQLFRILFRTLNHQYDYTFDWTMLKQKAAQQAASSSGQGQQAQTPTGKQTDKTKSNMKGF
Experiment: Radiometric-Based Assay (CK1α)
Protocol: Single-point measurements analyses and subsequent dose-dependent investigations of selected pteridine derivatives for inhibition of CK1α were performed at Reaction Biology (USA) using a radiometric-based assay and ATP concentration of 10 µM. For more details related to the experimental conditions employed please consult the following websites: http://www.reactionbiology.com/webapps/site/KinaseDetail.aspx.
Binarize IC50 at 9 µM; below is Met, at or above is Not met.

query_smiles: Nc1nc(N)c2nc(-c3cccc(Oc4ccccc4)c3)c(Cc3ccccc3)nc2n1
class: Met
--
query_smiles: Nc1nc(N)c2nc(-c3csc4ccccc34)c(N)nc2n1
class: Met
--
query_smiles: Nc1nc(N)c2nc(-c3cccc(Br)c3)c(N)nc2n1
class: Not met
--
query_smiles: Nc1nc(N)c2nc(-c3ccccc3)c(N)nc2n1
class: Not met
--
query_smiles: Nc1nc(N)c2nc(-c3ccc(Cl)cc3Cl)c(N)nc2n1
class: Not met
--
query_smiles: Nc1nc(N)c2nc(-c3cccs3)c(N)nc2n1
class: Not met
--
query_smiles: Nc1nc(N)c2nc(-c3cccc(F)c3)c(N)nc2n1
class: Not met
--
query_smiles: Nc1nc(N)c2nc(-c3ccccc3)cnc2n1
class: Not met

====

biological target: Eukaryotic elongation factor 2 kinase (Homo sapiens, UniProt O00418)
Sequence (O00418 whole entry): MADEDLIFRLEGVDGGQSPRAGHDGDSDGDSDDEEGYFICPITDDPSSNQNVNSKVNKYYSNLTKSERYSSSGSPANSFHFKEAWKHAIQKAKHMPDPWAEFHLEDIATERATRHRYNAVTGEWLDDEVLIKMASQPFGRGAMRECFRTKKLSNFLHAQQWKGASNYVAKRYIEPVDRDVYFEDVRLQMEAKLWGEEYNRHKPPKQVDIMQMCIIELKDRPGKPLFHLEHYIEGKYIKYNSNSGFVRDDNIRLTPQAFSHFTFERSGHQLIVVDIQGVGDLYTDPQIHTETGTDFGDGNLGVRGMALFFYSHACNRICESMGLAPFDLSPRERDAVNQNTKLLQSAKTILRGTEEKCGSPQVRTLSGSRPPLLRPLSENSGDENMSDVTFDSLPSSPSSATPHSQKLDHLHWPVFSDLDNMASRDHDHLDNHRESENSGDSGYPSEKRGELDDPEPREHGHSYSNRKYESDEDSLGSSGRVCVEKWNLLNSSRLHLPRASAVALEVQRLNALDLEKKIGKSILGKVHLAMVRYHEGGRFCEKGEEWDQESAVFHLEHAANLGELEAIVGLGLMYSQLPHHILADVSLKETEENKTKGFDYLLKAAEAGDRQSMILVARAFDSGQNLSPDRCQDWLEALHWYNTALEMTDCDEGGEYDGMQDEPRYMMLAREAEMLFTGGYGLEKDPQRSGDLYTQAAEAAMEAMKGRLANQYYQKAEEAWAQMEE

compound: Nc1nc(N)c2nc(-c3cccc(Cl)c3)c(N)nc2n1 [Epiblastin A]
IC50 [µM]: 27.4

====

target: MAP kinase-interacting serine/threonine-protein kinase 2 (Homo sapiens, UniProt Q9HBH9)
Sequence (Q9HBH9 whole entry): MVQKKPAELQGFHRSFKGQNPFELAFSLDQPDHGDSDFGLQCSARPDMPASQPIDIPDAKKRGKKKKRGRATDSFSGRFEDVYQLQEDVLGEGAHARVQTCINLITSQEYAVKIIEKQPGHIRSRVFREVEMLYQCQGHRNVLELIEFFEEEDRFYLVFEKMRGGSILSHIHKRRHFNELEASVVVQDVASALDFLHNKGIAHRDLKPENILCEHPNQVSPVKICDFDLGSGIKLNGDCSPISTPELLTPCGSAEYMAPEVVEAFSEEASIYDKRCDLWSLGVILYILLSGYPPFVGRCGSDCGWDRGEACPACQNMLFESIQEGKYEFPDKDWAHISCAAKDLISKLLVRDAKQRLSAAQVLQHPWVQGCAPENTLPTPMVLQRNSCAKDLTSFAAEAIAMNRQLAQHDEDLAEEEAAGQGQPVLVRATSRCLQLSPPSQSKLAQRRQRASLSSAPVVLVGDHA
pIC50: −log10 of the molar value.

molecule: Nc1nc(N)c2nc(-c3cccc(Cl)c3)c(N)nc2n1 [Epiblastin A]
pIC50: 4.35

====

biological target: Casein kinase I isoform delta (Homo sapiens, UniProt P48730); assay: KinaseGlo Plus Luminescent Assay; settings: pH 7.5
Sequence (P48730 whole entry, canonical isoform): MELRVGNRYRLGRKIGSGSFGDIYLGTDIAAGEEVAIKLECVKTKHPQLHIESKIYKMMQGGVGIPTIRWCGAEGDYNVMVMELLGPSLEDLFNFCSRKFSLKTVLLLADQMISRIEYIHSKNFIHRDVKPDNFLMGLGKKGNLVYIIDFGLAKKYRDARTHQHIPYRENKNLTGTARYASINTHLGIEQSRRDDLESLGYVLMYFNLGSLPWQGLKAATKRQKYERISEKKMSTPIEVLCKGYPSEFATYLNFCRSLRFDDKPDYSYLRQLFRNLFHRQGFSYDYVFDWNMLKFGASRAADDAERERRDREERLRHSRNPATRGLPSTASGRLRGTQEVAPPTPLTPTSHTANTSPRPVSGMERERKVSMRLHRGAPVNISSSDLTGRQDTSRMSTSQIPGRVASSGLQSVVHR
The compounds listed here are annotated with their IC50.

compound: Nc1nc(N)c2nc(-c3cccc(Cl)c3)c(N)nc2n1 [Epiblastin A]
system_name: Casein kinase I isoform delta (Homo sapiens, UniProt P48730)
measure_unit: µM
IC50: 0.5
--
compound: Nc1nc(N)c2nc(-c3cccc(Br)c3)c(N)nc2n1
system_name: Casein kinase I isoform delta (Homo sapiens, UniProt P48730)
measure_unit: µM
IC50: 2.5
--
compound: Nc1nc(N)c2nc(-c3ccccc3)c(N)nc2n1 [Pteridine deriv. 11]
system_name: Casein kinase I isoform delta (Homo sapiens, UniProt P48730)
measure_unit: µM
IC50: 36.4
--
compound: Cc1cccc(-c2nc3c(N)nc(N)nc3nc2N)c1 [6-m-Tolyl-pteridine-2,4,7-triamine]
system_name: Casein kinase I isoform delta (Homo sapiens, UniProt P48730)
measure_unit: µM
IC50: 20.2
--
compound: Nc1nc(N)c2nc(-c3cccc(Oc4ccccc4)c3)c(Cc3ccccc3)nc2n1
system_name: Casein kinase I isoform delta (Homo sapiens, UniProt P48730)
measure_unit: µM
IC50: 9.6
--
compound: Nc1nc(N)c2nc(-c3c(F)cccc3F)c(N)nc2n1
system_name: Casein kinase I isoform delta (Homo sapiens, UniProt P48730)
measure_unit: µM
IC50: 35.7
--
compound: Nc1ccc(-c2nc3c(N)nc(N)nc3nc2N)cc1
system_name: Casein kinase I isoform delta (Homo sapiens, UniProt P48730)
measure_unit: µM
IC50: 81.2
--
compound: Nc1nc(N)c2nc(-c3ccccc3)cnc2n1 [6-phenylpteridine-2,4-diamine (35)]
system_name: Casein kinase I isoform delta (Homo sapiens, UniProt P48730)
measure_unit: µM
IC50: 80.6
--
compound: Nc1nc(N)c2nc(-c3csc4ccccc34)c(N)nc2n1
system_name: Casein kinase I isoform delta (Homo sapiens, UniProt P48730)
measure_unit: µM
IC50: 2.8
--
compound: Nc1cccc(-c2nc3c(N)nc(N)nc3nc2N)c1
system_name: Casein kinase I isoform delta (Homo sapiens, UniProt P48730)
measure_unit: µM
IC50: 32.4
--
compound: Nc1nc(N)c2nc(-c3cccnc3)c(N)nc2n1
system_name: Casein kinase I isoform delta (Homo sapiens, UniProt P48730)
measure_unit: µM
IC50: 16.1
--
compound: Nc1nc(N)c2nc(-c3cccs3)c(N)nc2n1
system_name: Casein kinase I isoform delta (Homo sapiens, UniProt P48730)
measure_unit: µM
IC50: 24.4
--
compound: Nc1nc(N)c2nc(-c3cccc(F)c3)c(N)nc2n1
system_name: Casein kinase I isoform delta (Homo sapiens, UniProt P48730)
measure_unit: µM
IC50: 61.8
--
compound: COc1cccc(-c2nc3c(N)nc(N)nc3nc2N)c1
system_name: Casein kinase I isoform delta (Homo sapiens, UniProt P48730)
measure_unit: µM
IC50: 12.3
